These entries and their values trace back to patent US20220033501A1.

Biological target: T1, human TIM-3 ECD (antigen protein of the affinity test) (human, UniProt Q8TDQ0 22-200)
T1 sequence: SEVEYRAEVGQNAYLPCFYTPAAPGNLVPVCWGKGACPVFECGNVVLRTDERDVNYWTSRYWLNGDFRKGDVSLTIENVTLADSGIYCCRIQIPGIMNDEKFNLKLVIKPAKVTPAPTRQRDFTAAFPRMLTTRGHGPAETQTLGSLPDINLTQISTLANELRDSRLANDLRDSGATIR
Experiment: AHC sensor kinetics, antibody captured on sensor, antigen protein in solution, global 1:1 fit
For each entry below, report its kon value.
Give bare numbers, in M⁻¹ s⁻¹.

Guide cases for kon, answers given:
fully human TIM-3 antibody 34B6D8 (antibody, human IgG4, V domains shown, also called antibody number 5) VH: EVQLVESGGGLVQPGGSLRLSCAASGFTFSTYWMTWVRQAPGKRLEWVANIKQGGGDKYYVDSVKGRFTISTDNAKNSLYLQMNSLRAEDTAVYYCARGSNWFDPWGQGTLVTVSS VL: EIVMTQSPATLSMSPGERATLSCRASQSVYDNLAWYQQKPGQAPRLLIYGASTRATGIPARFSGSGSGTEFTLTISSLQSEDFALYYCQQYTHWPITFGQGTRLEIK | 1.15e+06
fully human TIM-3 antibody 134H3G6 (antibody, human IgG4, V domains shown, also called antibody number 3) VH: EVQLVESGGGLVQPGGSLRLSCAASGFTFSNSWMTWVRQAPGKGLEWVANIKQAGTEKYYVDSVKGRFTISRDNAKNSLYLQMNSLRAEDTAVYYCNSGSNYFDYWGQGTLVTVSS VL: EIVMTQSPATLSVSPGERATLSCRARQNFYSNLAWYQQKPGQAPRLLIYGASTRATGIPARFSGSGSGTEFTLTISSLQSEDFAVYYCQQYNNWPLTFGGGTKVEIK | 1.19e+06

Now for a further binder.
Lookup result for fully human TIM-3 antibody 39E5H1 (antibody, human IgG4, V domains shown, also called antibody number 6) VH: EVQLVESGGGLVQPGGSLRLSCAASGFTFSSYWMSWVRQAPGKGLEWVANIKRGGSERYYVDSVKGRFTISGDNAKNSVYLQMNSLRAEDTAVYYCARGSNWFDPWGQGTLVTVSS VL: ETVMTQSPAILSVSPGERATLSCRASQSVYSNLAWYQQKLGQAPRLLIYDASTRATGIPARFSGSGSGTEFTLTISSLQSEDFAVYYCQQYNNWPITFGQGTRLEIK ; measured kon: 1.06e+06
